target: Solute carrier organic anion transporter family member 1B1 (Homo sapiens, UniProt Q9Y6L6); test: Inhibition of human OATP1B1-mediated [3H]estrone 3-sulfate at 100 uM after 5 mins relative to control; type: ADME
Sequence (Q9Y6L6 whole entry): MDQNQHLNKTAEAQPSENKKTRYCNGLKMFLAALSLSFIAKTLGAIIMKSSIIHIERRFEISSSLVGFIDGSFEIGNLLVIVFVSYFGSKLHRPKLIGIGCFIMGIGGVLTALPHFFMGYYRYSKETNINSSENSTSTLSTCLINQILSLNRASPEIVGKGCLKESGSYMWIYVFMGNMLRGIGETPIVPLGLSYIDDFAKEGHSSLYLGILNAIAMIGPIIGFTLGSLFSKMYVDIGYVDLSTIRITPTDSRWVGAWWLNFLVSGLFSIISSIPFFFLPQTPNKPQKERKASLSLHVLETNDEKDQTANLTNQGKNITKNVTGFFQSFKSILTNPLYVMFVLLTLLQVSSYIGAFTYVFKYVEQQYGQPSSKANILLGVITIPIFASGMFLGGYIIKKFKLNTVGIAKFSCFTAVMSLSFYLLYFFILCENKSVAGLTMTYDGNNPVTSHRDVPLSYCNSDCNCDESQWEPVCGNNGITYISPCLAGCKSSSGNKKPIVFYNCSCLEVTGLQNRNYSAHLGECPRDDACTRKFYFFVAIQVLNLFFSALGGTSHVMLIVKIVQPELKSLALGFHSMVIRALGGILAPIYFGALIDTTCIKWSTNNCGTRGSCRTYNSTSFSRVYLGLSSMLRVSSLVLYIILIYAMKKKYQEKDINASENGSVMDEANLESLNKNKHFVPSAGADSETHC
Below is a list of entries, each paired with its recorded inhibition (INH) value.

compound	inhibition (INH)
C[C@]12C=CC(=O)C=C1CC[C@@H]1[C@@H]2C(=O)C[C@@]2(C)[C@H]1CC[C@]2(O)C(=O)CO [PREDNISONE]	9.8%
O=C1c2c(O)ccc(O)c2C(=O)c2c(NCCNCCO)ccc(NCCNCCO)c21 [MITOXANTRONE]	18.9%
COc1cccc2c1C(=O)c1c(O)c3c(c(O)c1C2=O)C[C@@](O)(C(=O)CO)C[C@@H]3O[C@H]1C[C@H](N)[C@H](O)[C@H](C)O1 [DOXORUBICIN]	12%
CC[C@]1(O)C[C@H]2CN(CCc3c([nH]c4ccccc34)[C@@](C(=O)OC)(c3cc4c(cc3OC)N(C=O)[C@H]3[C@@](O)(C(=O)OC)[C@H](OC(C)=O)[C@]5(CC)C=CCN6CC[C@]43[C@@H]65)C2)C1 [VINCRISTINE]	28.1%
CC[C@]1(O)C[C@@H]2CN(CCc3c([nH]c4ccccc34)[C@@](C(=O)OC)(c3cc4c(cc3OC)N(C)[C@H]3[C@@](O)(C(=O)OC)[C@H](OC(C)=O)[C@]5(CC)C=CCN6CC[C@]43[C@@H]65)C2)C1 [VINBLASTINE]	64.1%
